tested on: SK-MEL-5 melanoma; experiment: NCI tumour cell line growth inhibition, 48 h
measurement_type: TGI

{"compound": "O=c1c(O)c(-c2ccccc2)oc2c(CP(=O)(O)O)cccc12", "measurement_type": "TGI", "result": "> 100 µM"}
{"compound": "NC1CC(=O)c2c(-c3cccs3)sc(-c3cccs3)c21 (stereo unspecified)", "measurement_type": "TGI", "result": "> 100 µM"}
{"compound": "c1ccc2c(c1)nnn2C1CCCCO1 (stereo unspecified)", "measurement_type": "TGI", "result": "> 100 µM"}
{"compound": "COc1c(C(N)=O)cc(-c2ccc(Cl)cc2)cc1-c1ccc(S(N)(=O)=O)cc1", "measurement_type": "TGI", "result": "> 25 µM"}
{"compound": "COP(=O)(CP(=O)(OC)OCCC(C)CCC=C(C)C)OC (stereo unspecified)", "measurement_type": "TGI", "result": "> 100 µM"}

For CC(C)N1CC2CC(CN(C(=O)c3ccc(Cl)cc3)C2)C1 , what is its reported TGI?
> 100 µM
